# System: NCI-H23 lung
# assayOverview: NCI-60 one-dose screen, 48 h (100 = growth as untreated, 0 = no growth, -100 = all killed)
# cond: 10 µM unless noted
This is part of a sample that, as a whole, favours compounds with a hit. Of some 83,000 tested, about 20% had one in any assay. The source made the active and inactive calls. How the source made its calls: active means growth percent below 10; inactive means the rest.
Recorded growth for the following compounds
testReadout: growth

>>> valueobserved("O=S(=O)(c1cccc(NC2=Nc3cccc4cccc2c34)c1)N1CCCC1")
"60.8% (inactive)"
>>> valueobserved("CCOC(=O)c1c(O)cc(-c2ccccc2)cc1-c1sc(N(C)Cc2ccccc2)nc1Cl")
"98.7% (inactive)"
>>> valueobserved("C[C@]12CCc3nc(Nc4cccc(O)c4)sc3C1=CC[C@@H]1[C@@H]2CC[C@]2(C)/C(=N\\NC(N)=S)CC[C@@H]12")
"57.3% (inactive)"
>>> valueobserved("N#Cc1ccc(-c2ccc3c(c2)NC(=O)/C3=C\\c2ccc[nH]2)cc1")
"36.4% (inactive)"
>>> valueobserved("O=C(Nc1cccc(Cl)c1)Oc1c(Br)c(Br)c(Br)c(Br)c1Br")
"91% (inactive)"
>>> valueobserved("Nc1ncc(C#Cc2cncc(NC(=O)c3cccc(C(F)(F)F)c3)c2)c2cccnc12")
"30.4% (inactive)"
>>> valueobserved("CC(c1ccccc1)n1ccnc1CO (stereo not given)")
"96.5% (inactive)"
>>> valueobserved("C[C@H]1[C@H](C)CC[C@]2(CO)CC[C@]3(C)C(=CC[C@@H]4[C@@]5(C)CCCNC(C)(C)[C@@H]5CC[C@]43C)[C@H]12")
"36.1% (inactive)"
>>> valueobserved("C[C@]12C[C@H]1CC[C@]1(C)[C@@H]2CC[C@@]23C[C@H](CC[C@H]21)[C@@](O)(CO)C3")
"98.5% (inactive)"
>>> valueobserved("COc1ccc(-c2nc(SCCC(C)C)nc(N/N=C(/C)c3ccc(C)cc3)c2C#N)cc1")
"84.5% (inactive)"
>>> valueobserved("CCn1ccnc1C(=O)/C=C/c1ccc(CC(=O)Nc2ccc(F)cc2)cc1")
"29.2% (inactive)"
>>> valueobserved("CCNC(=O)c1[nH]cc(-c2ccc(OC)cc2)c1-c1cc(OC)cc(OC)c1")
"91.9% (inactive)"
>>> valueobserved("c1ccc(Cn2nc3c(c2-c2ccccc2)-c2oncc2CC3)cc1")
"87.5% (inactive)"
>>> valueobserved("COc1ccc(/C=C2\\COc3ccc(-c4ccccc4)cc3C2=O)cc1O")
"50.5% (inactive)"
>>> valueobserved("O=C1NC(=S)NC(=O)C1=Cc1cccc(C=C2C(=O)NC(=S)NC2=O)c1")
"102% (inactive)"
>>> valueobserved("CN(C)C(=O)OCc1nc2c(N3CCOCC3)nc(-c3ccccc3)nc2n1C")
"-67.3% (active)"
>>> valueobserved("CC1=CC2(C)/C=C(C)/C=C\\CC(O)/C=C3/C=CC(=C4C(=O)OC2(CC1C)C4=O)OC3 (stereo not given)")
"-97.5% (active)"
>>> valueobserved("Clc1ccc(N2N=C(c3cccc(Nc4ccncc4)c3)CC2c2ccccc2)cc1 (stereo not given)")
"92.6% (inactive)"
>>> valueobserved("CCCCCCCCCCCCCCCC(=O)OC[C@@]1(O)C[C@@]23CC[C@@H]4C(C)(C)CCC[C@@]4(C)[C@@H]2CC[C@H]1C3")
"102% (inactive)"
>>> valueobserved("Cc1nc2sc(C(=O)Nc3cccc(Br)c3)c(N)c2cc1C(=O)c1ccc(C(F)(F)F)cc1")
"75.1% (inactive)"
>>> valueobserved("CCOC(=O)c1cnc2c(cnn2CC)c1NN=C(C)C")
"96.5% (inactive)"
>>> valueobserved("O=C(O)c1cn(C2CC2)c2cc(N3CCN(C(=O)C[n+]4cccc5ccccc54)CC3)c(F)cc2c1=O")
"84.4% (inactive)"
>>> valueobserved("O=C1Nc2cc(-c3ccncc3)ccc2/C1=C/c1ccc[nH]1")
"58.5% (inactive)"
>>> valueobserved("COc1cc2nnn3c4ncccc4c(N=O)c3c2cc1OC")
"112% (inactive)"
>>> valueobserved("Nc1ccccc1NC(=O)c1ccc(CN2CCC/C(=C\\c3cccc(Cl)c3)C2=O)cc1")
"21.1% (inactive)"

----------
# Tested on: UACC-257 melanoma
# assayOverview: NCI-60 one-dose screen, 48 h
# cond: 10 µM unless noted
About 83,000 compounds went through this panel and 20% of them were active in at least one assay; those are over-represented in the sample as a whole. The source made the active and inactive calls. The calls were made as follows: active = growth percent below 10; inactive = the rest.
Labels: active, inactive

>>> qualitativelabel("COc1ccc(C(O)c2cc3c(N)c(C(=O)Nc4cccc(OC)c4)sc3nc2C)cc1 (centres undefined)")
"inactive"
>>> qualitativelabel("CSc1nnc2c(=O)n(C)c(=O)n(C)c2n1")
"inactive"
>>> qualitativelabel("COc1cc2oc(-c3cccc(C(=O)Nc4ccc(Cl)cc4)c3)cc(=O)c2c(OC)c1OC")
"active"
>>> qualitativelabel("CCN(CC)S(=O)(=O)c1cccc([N+](=O)[O-])c1")
"inactive"
>>> qualitativelabel("C=C(C)[C@@H]1CC[C@]2(C(=O)O)CC[C@]3(C)[C@H](CC[C@@H]4[C@@]5(C)C[C@@H](CC#Cc6ccc(Br)cc6)C(=O)C(C)(C)[C@@H]5CC[C@]43C)[C@@H]12")
"inactive"
>>> qualitativelabel("Cc1cc(C)n(Nc2nc3ccccc3[nH]c2=O)c(=O)c1C#N")
"inactive"
>>> qualitativelabel("O=C(Cc1ccc(/C=C/C(=O)c2ncc[nH]2)cc1)Nc1ccc(C(F)(F)F)cc1")
"inactive"
>>> qualitativelabel("Cc1ccc(C(=O)Nc2ccccc2C(=O)N/N=C(\\c2ccccc2)c2ccccn2)cc1")
"active"
>>> qualitativelabel("O=C(CN1CCOCC1)Nc1ccc2ncnc(Nc3ccc(Oc4cccc(F)c4)c(Cl)c3)c2c1")
"inactive"

----------
# Test system: SK-MEL-5 melanoma
# assayOverview: NCI-60 one-dose screen, 48 h (100 = growth as untreated, 0 = no growth, -100 = all killed)
# cond: 10 µM unless noted
This is part of a sample that, as a whole, favours compounds with a hit. Of some 83,000 tested, about 20% had one in any assay.
testReadout: growth (%)

>>> valueobserved("CN1C2CCC1CN(c1cnc(C(=O)Nc3cc(F)cc4cccnc34)cn1)C2")
79.5
>>> valueobserved("CC(=O)N1N=C(c2cccc(Nc3ccncc3)c2)CC1c1ccccc1 (stereo not drawn)")
82
>>> valueobserved("O=C1Nc2cc(-c3ccncc3)ccc2/C1=C/c1ccc[nH]1")
77.9

----------
# Test system: UACC-257 melanoma
# assayOverview: NCI-60 one-dose screen, 48 h (100 = growth as untreated, 0 = no growth, -100 = all killed)
# cond: 10 µM unless noted
The panel holds about 83,000 compounds, 20% with a hit somewhere; the sample as a whole holds those more often. The source made the active and inactive calls. The calls were made as follows: active = growth percent below 10; inactive = the rest.
testReadout: growth

>>> valueobserved("CC(=O)c1cc2c(N)c(C(=O)Nc3cncc4ccccc34)sc2nc1C")
"104% (inactive)"
>>> valueobserved("Cc1cn(-c2cc(C(=O)Nc3cccc(C#Cc4cccc5[nH]nc(N)c45)c3)cc(C(F)(F)F)c2)cn1")
"18.1% (inactive)"
>>> valueobserved("Cc1[nH]n(-c2cccc(Cl)c2)c(=O)c1/C=C1\\C=Nc2ccc(Br)cc21")
"75.1% (inactive)"

----------
# Tested on: HCT-15 colon
# assayOverview: NCI-60 one-dose screen, 48 h
# cond: 10 µM unless noted
Compounds without any hit were thinned out: in the full panel of roughly 83,000, 20% have a hit. The source made the active and inactive calls. The calls were made as follows: active = growth percent below 10; inactive = the rest.
Labels: label 1 = active, label 0 = inactive

>>> qualitativelabel("COc1ccccc1-c1c(-c2ccc(Cl)cc2)c2cc3c(cc2[nH]c1=O)OCCO3")
"label 0"
>>> qualitativelabel("CC(=O)c1c[nH]c2ccc(-c3ccnc(Nc4ccc(NC(=O)C5CCCC5)c(CN5CCOCC5)c4)n3)cc12")
"label 1"
>>> qualitativelabel("Cc1[nH]c(C(=O)Nc2ccccc2OCc2cccc(C(=O)NCCN)c2)c(Cl)c1Cl")
"label 0"
>>> qualitativelabel("CN(C)Cc1c(-c2ccccc2)[nH]c2ccccc12")
"label 0"
>>> qualitativelabel("COc1ccc(C(=O)c2cc3c(N)c(C(=O)Nc4ccc(Cl)cc4)sc3nc2C)cc1")
"label 0"
>>> qualitativelabel("CCN1C(=O)/C(=c2\\sc3n(c2=O)NC2C(N=3)N(CC)C(=O)N2CC)c2ccccc21 (stereo not given)")
"label 0"
>>> qualitativelabel("Cc1ccc(C2CC(c3cccc(Nc4ccncc4)c3)=NN2c2cc(Cl)cc(Cl)c2)cc1 (stereo not given)")
"label 1"
>>> qualitativelabel("CCCCCCCCCCCCC1CCC/C=C\\CCC(=O)O1 (stereo not given)")
"label 0"
>>> qualitativelabel("CCOc1ccc(/C=N/Nc2cc(C)nc3ccc(Cl)cc23)cc1")
"label 1"
>>> qualitativelabel("COc1ccc(C(O)c2cc3c(N)c(C(=O)Nc4ccc(Cl)cc4)sc3nc2C)cc1 (stereo not given)")
"label 0"
